# Assay System: T1, human DLL4 extracellular domain (human, UniProt Q9NR61 27-529)
# T1 construct: purified recombinant ECD; biotin-labelled or 6xHis-tagged depending on the assay; also called huDLL4 ECD; hu DLL4 ECD
# T1 sequence (Q9NR61 27-529 limits assumed): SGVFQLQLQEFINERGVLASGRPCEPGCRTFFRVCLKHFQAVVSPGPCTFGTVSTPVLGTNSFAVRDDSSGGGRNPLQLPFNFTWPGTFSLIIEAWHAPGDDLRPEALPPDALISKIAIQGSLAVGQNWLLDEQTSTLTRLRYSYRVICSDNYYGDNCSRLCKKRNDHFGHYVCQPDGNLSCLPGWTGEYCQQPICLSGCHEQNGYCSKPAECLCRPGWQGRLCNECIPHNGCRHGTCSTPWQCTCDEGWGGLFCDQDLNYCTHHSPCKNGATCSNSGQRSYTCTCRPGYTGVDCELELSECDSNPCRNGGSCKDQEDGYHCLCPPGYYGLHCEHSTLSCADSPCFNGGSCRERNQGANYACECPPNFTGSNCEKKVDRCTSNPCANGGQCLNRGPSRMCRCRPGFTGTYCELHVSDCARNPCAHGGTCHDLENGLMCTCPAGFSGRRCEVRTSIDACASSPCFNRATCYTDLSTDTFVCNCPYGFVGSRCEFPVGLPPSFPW
# Test Summary: SPR (Biacore)
Recorded pKd values for a group of binders are listed next.
When answering, recall that pKd equals minus log10 of the concentration in mol/L, and write that number alone.

Prompt line: Supply recorded pKd for h1A11.11 (antibody, V domains shown, humanized IgG; also called VH.1b/VL.1b 1A11) VH: EVQLVESGGGLVQPGGSLRLSCAASGFTFSNFPMAWVRQAPGKGLEWVATISSSDGTTYYRDSVKGRFTISRDNAKNSLYLQMNSLRAEDTAVYYCSRGYYNSPFAYWGQGTLVTVSS VL: DIQMTQSPSSLSASVGDRVTITCRASEDIYSNLAWYQQKPGKAPKLLIFDTNNLADGVPSRFSGSGSGTDFTLTISSLQPEDFATYYCQQYNNYPPTFGQGTKLEIKR here.
Response line: 7.92

Prompt line: In one line, give reported pKd of the entry h1A11.4 (antibody, V domains shown, humanized IgG; also called VH.1/VL.2a 1A11) VH: EVQLVESGGGLVQPGGSLRLSCAASGFTFSNFPMAWVRQAPGKGLEWVATISSSDGTTYYRDSVKGRFTISRDNAKNSLYLQMNSLRAEDTAVYYCARGYYNSPFAYWGQGTLVTVSS VL: EIVMTQSPATLSVSPGERATLSCRASEDIYSNLAWYQQKPGQSPRLLIFDTNNLADGVPARFSGSGSGTESTLTISSLQSEDFAVYFCQQYNNYPPTFGQGTKLEIKR .
Response line: 7.80

Prompt line: Hello, please tell me recorded pKd for this one: h1A11.2 (antibody, V domains shown, humanized IgG; also called VH.1/VL.1a 1A11) VH: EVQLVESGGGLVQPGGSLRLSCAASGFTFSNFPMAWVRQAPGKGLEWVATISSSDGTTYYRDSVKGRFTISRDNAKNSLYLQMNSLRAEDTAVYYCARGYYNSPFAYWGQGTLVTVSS VL: DIQMTQSPSSLSASVGDRVTITCRASEDIYSNLAWYQQKPGKSPKLLIFDTNNLADGVPSRFSGSGSGTDSTLTISSLQPEDFATYFCQQYNNYPPTFGQGTKLEIKR
Response line: 8.00
